assay: plasmodial surface anion channel blockers, osmotic lysis – cell-based, P. falciparum Indochina, OD700, 2 h, primary screen (AID 1155);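 further: lysis reports solute entry through the parasite surface anion channel PSAC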; settings: P. falciparum Indochina infected erythrocytes, higher = more signal, called active from +8 up or from −8 down
Activity calls are given as the source filed them.
Endpoint: z-score

Using the record for `COC(=O)[C@@]1(Cc2ccc(OC)cc2)[C@H]2c3cc(C(=O)N4CCCC4)n(Cc4ccc(Cl)c(C(F)(F)F)c4)c3C[C@H]2CN1C(=O)c1ccccc1` , report its z-score.
-0.382 (inactive)

Would you mind doing `COC(=O)[C@@]1(Cc2ccccc2)[C@H]2c3cc(C(=O)N(C)C)n(CCO)c3C[C@H]2CN1C(=O)c1ccccc1` as well?
0.19 (inactive)

Would you mind doing `C=CC[C@@]12N=C(c3ccc(OCCCO)cc3)O[C@@H]1c1ccccc1N(CCC)C2=O` as well?
36.6 (active)

Would you mind doing `CCCNC(=O)[C@@]1(Sc2ccc(C)cc2)CC(=O)N(Cc2ccccc2Cl)[C@@H]1c1ccc(CO)cc1I` as well?
0.773 (inactive)

Would you mind doing O=C1C2C=CC(C(O)c3ccc([N+](=O)[O-])cc3)N(Nc3ccccc3F)C2C(=O)N1c1ccccc1 (configuration not stated) as well?
0.885 (inactive)

Would you mind doing O=C1C2C=CC(C(O)c3cccs3)N(Nc3ccc([N+](=O)[O-])cc3)C2C(=O)N1c1ccccc1 (configuration not stated) as well?
1.43 (inactive)

Would you mind doing COc1ccc(C(O)C2C=CC3C(=O)NC(=O)C3N2Nc2ccc(Cl)cc2Cl)c2ccccc12 (configuration not stated) as well?
1.44 (inactive)

Would you mind doing `CCCCCCc1nc(-c2ccc(-c3ccc(Cl)c(Cl)c3)o2)cc2c1[Si](C(C)C)(C(C)C)OC2` as well?
0.259 (inactive)

Would you mind doing `COCCOC(=O)N1C(=O)[C@@]2(c3cc(C#CCC(C(=O)OC)C(=O)OC)ccc31)[C@H](c1ccc(O)cc1)N1[C@H](c3ccccc3)[C@H](c3ccccc3)OC(=O)[C@H]1[C@@H]2C(=O)Nc1nc2ccccc2s1` as well?
0.666 (inactive)

Would you mind doing COc1ccc(NN2C(C(O)c3ccc(I)cc3)C=CC3C(=O)N(C4CCCCC4)C(=O)C32)cc1 (configuration not stated) as well?
1.16 (inactive)

Would you mind doing [N-]=[N+]=NCc1ccccc1[C@@H]1OC(c2ccc(OCCCO)cc2)=N[C@]1(Cc1ccccc1N=[N+]=[N-])C(=O)NCC(O)CO (some centres not stated) as well?
5.06 (inactive)

Would you mind doing CC(C)=CCCC=C(C)C(O)C1C=CC2C(=O)N(c3ccccc3)C(=O)C2N1Nc1ccc(C#N)cc1 (configuration not stated) as well?
1.88 (inactive)

Would you mind doing NC(=O)N1C(=O)C2C(C1=O)C1C=C(CCCO)C2C(C2CC2)N1Cc1sc2ccccc2c1Cl (configuration not stated) as well?
2.12 (inactive)

Would you mind doing `COCCOC(=O)N1C(=O)[C@@]2(c3cc(C#CCC(C(=O)OC)C(=O)OC)ccc31)[C@H](C(=O)Nc1nc3ccccc3s1)[C@H]1C(=O)O[C@H](c3ccccc3)[C@H](c3ccccc3)N1[C@@H]2c1ccc(O)cc1` as well?
0.575 (inactive)

Would you mind doing CN1C(=O)C2C=CC(C(O)c3ccc(-c4ccccc4)s3)N(NC(=O)OC(C)(C)C)C2C1=O (configuration not stated) as well?
0.524 (inactive)

Would you mind doing COc1cc(C(O)C2C=CC3C(=O)N(c4ccccc4)C(=O)C3N2Nc2ccccc2)cc(OC)c1OC (configuration not stated) as well?
12.1 (active)

Would you mind doing CC(C)(C)N1CC=CC23O[C@@H]4C=CCOC(=O)[C@@H]4[C@H]2C(=O)N(CCO)[C@@H]3C1=O (some centres not stated) as well?
0.184 (inactive)

Would you mind doing `Cc1ccc(N2C(=O)c3ccccc3[C@](C)(C(=O)NCCCN(C)C)[C@@H]2c2ccc(CO)cc2)nc1` as well?
0.0681 (inactive)

Would you mind doing `C=CCN1Cc2ccccc2[C@H]2OC(c3ccc(OCCCO)cc3)=N[C@@]2(CCS(=O)(=O)c2ccccc2)C1=O` as well?
27.2 (active)

Would you mind doing `COCCOC(=O)N1C(=O)[C@@]2(c3cc(C#CC4(O)CCCCCC4)ccc31)[C@H](c1ccc(O)cc1)N1[C@H](c3ccccc3)[C@H](c3ccccc3)OC(=O)[C@H]1[C@@H]2C(=O)N1CCCCCCC1` as well?
0.928 (inactive)

Would you mind doing `O=C(NCCN1CCOCC1)[C@@H]1c2ccccc2C(=O)N(Cc2ccccc2C(F)(F)F)[C@H]1c1ccc(CO)cc1` as well?
-0.191 (inactive)

Would you mind doing `C=C(COC)/C(=C/C[C@H](OC(C)=O)c1ccccc1OCCO)c1cc(C(=O)OC)ccc1OC` as well?
1.02 (inactive)

Just for reference, PubChem BioAssay is where these values come from.
